# ASSAYED_TARGET: mTOR (Homo sapiens)
# METHOD: Lanthascreen kinase binding assay, assay G
# RECORDED_CONDITIONS: read-out: Assay G mTOR IC50
OBSERVABLE: IC50

Some entries whose results are on file:
>  <COMPOUND>
Cc1cnn(-c2nc(-c3cc(S(=O)(=O)N[C@H]4CC[C@H](O)CC4)ccc3C)cnc2N)c1 [Example 111]

>  <IC50>
> 9.1 µM

$$$$
>  <COMPOUND>
Cc1ccc(S(=O)(=O)N2CCC(F)(F)C2)cc1-c1cnc(N)c(-n2cncn2)n1 [Example 127.3]

>  <IC50>
> 10 µM

$$$$
>  <COMPOUND>
Cc1ccc(S(=O)(=O)NCCC(O)C(F)(F)F)cc1-c1cnc(N)c(-c2cnn(C)c2)n1 (centres unmarked) [Example 51]

>  <IC50>
> 9.1 µM

$$$$

Okay, now this compound:
Prompt line: # input compound: Cc1ccc(S(=O)(=O)NCCC(C)(C)O)cc1-c1cnc(N)c(-c2cnc(Cl)cc2C)n1 [Example 119.9] ; wanted: its IC50
Response line: > 9.1 µM
